Test: Ratio of drug level in brain to plasma in CD-1 mouse at 10 mg/kg, po
Type: ADME, organism-based
Design: dose 10 mg/kg, route oral
Details: brain and plasma, read-out: BPR
quantity kind: Kp

| smiles text | experimental value |
| --- | --- |
| CCN1CCN(c2ccc(NC(=O)c3ccc(-c4ccccc4)cc3)cc2)CC1 | ≤ 10 |

Field: next compound
If you can, please state the reported Kp value of CC(C)N1CCN(c2ccc(NC(=O)c3ccc(-c4ccccc4)cc3)cc2)CC1 .
≤ 10

---

Test system: Plasma
Test: Cmax in CD-1 mouse plasma at 10 mg/kg, po after 6 hrs by LC/MS analysis
Format: ADME, organism-based
Design: dose 10 mg/kg, route oral
Settings: in vivo
Each record here notes measured Cmax.
Numbers only here, please. The scale is nM.

Use the examples below as a reference point.
| smiles text | assay system | Cmax, nM |
| --- | --- | --- |
| CCN1CCN(c2ccc(NC(=O)c3ccc(-c4ccccc4)cc3)cc2)CC1 | Plasma | 370 |
| CC(C)N1CCN(c2ccc(NC(=O)c3ccc(-c4ccccc4)cc3)cc2)CC1 | Plasma | 270 |
| CC(C)N1CCN(c2ccc(NC(=O)c3ccc(-c4ccccn4)cc3)nc2)CC1 | Plasma | 340 |

// returns reported Cmax for input CC(C)N1CCN(c2ccc(NC(=O)c3ccc(-c4ccccn4)cc3)c(F)c2)CC1
650

Look up Cmax for this compound: CC(C)N1CCN(c2ccc(NC(=O)c3ccc(-c4ccccn4)cc3)cc2)CC1
320

What Cmax value was documented for this compound, CCN1CCN(c2ccc(NC(=O)c3ccc(-c4ccccn4)cc3)cc2)CC1 ?
280

// lookup Cmax for CCN1CCN(c2ccc(NC(=O)c3ccc(-c4cccnc4)cc3)cc2)CC1
210

Look up Cmax for this compound: CC(C)N1CCN(c2ccc(NC(=O)c3ccc(-c4ccccn4)cc3)cc2F)CC1
460

---

Experiment: AUC (0 to 6 hrs) in CD-1 mouse plasma at 10 mg/kg, po by LC/MS analysis
Assay type: ADME, organism-based
Parameters: time < 6 hr, dose 10 mg/kg, route oral
Binary classification by AUC(0-t) at 6 h, with 1 µM·h as an inclusive lower bound for YES; all other cases are NO.

| smiles text | class |
| --- | --- |
| CCN1CCN(c2ccc(NC(=O)c3ccc(-c4ccccc4)cc3)cc2)CC1 | YES |

# ---- query molecule ----
Determine whether measured AUC(0-t) at 6 h meets or exceeds 1 µM·h for CC(C)N1CCN(c2ccc(NC(=O)c3ccc(-c4ccccn4)cc3)nc2)CC1
YES

---

Assay: AUC (0 to 6 hrs) in CD-1 mouse brain at 10 mg/kg, po by LC/MS analysis
Type: ADME, organism-based
Design: time < 6 hr, dose 10 mg/kg, route oral
Please note: True applies when AUC(0-t) at 6 h is 20 µM·h or greater, and False applies otherwise.

Observe how each entry below is paired with its result.
| smiles text | class |
| --- | --- |
| CC(C)N1CCN(c2ccc(NC(=O)c3ccc(-c4ccccn4)cc3)cc2)CC1 | False |
| CCN1CCN(c2ccc(NC(=O)c3ccc(-c4ccccc4)cc3)cc2)CC1 | True |
| CC(C)N1CCN(c2ccc(NC(=O)c3ccc(-c4ccccn4)cc3)c(F)c2)CC1 | True |

Does CC(C)N1CCN(c2ccc(NC(=O)c3ccc(-c4ccccn4)cc3)nc2)CC1 have a reported AUC(0-t) at 6 h of at least 20 µM·h?
True

Kindly determine if AUC(0-t) at 6 h recorded for CC(C)N1CCN(c2ccc(NC(=O)c3ccc(-c4ccccc4)cc3)cc2)CC1 is above or exactly 20 µM·h.
False

Decide: is the reported value of AUC(0-t) at 6 h for CC(C)N1CCN(c2ccc(NC(=O)c3ccc(-c4ccccn4)cc3)cc2F)CC1 equal to or greater than 20 µM·h?
True

Hello, I need to know if CCN1CCN(c2ccc(NC(=O)c3ccc(-c4ccccn4)cc3)cc2)CC1 has measured AUC(0-t) at 6 h not below 20 µM·h. Thanks!
True

Reported AUC(0-t) at 6 h reaches at least 20 µM·h for CCN1CCN(c2ccc(NC(=O)c3ccc(-c4cccnc4)cc3)cc2)CC1 ?
False
